molecular target: Cytochrome P450 1A2 (Homo sapiens); experiment: Cytochrome P450 Family 1 Subfamily A Member 2 (CYP1A2) small molecule antagonists: luciferase reporter qHTS assay (AID 1671199); conditions: P450-Glo CYP1A2 enzyme, luciferin luminescence, 1 h; series mostly up to 53 µM; further: nearly all actives have a fitted effect of over 50% in size
Results filed as inconclusive are left out. Activity calls are given as the source filed them. The call rests on the fitted dose curve; in most records, active means well fitted inhibition curve with a large enough effect in the repeat runs; inconclusive means weak or mixed curves; inactive means no such curve, though single readings can be large or run the other way.
Classes to choose from: 1 for active, 0 for inactive

Tell me the assay call for CCn1cc(C(=O)O)c(=O)c2cc(F)c(N3CCNCC3)cc21 please.
0

Tell me the assay call for COc1ccc(OC(=O)N(CC(=O)O)Cc2ccc(OCCc3nc(-c4ccccc4)oc3C)cc2)cc1 please.
1

Tell me the assay call for CC(=O)Nc1cc(S(=O)(=O)O)cc2cc(S(=O)(=O)O)c(N=Nc3ccccc3)c(O)c12 please.
1

Tell me the assay call for CN1C(C(=O)Nc2ccccn2)=C(O)c2sccc2S1(=O)=O please.
0

Tell me the assay call for COc1cc(C(=O)NC2CCN(C)CC2)ccc1Nc1ncc2c(n1)N(C1CCCC1)CC(F)(F)C(=O)N2C please.
0

Tell me the assay call for CCCCCCCCOc1ccc(C(=O)O)cc1 please.
0

Tell me the assay call for CN1C[C@H](C(=O)N[C@]2(C)O[C@@]3(O)[C@@H]4CCCN4C(=O)[C@H](Cc4ccccc4)N3C2=O)C[C@@H]2c3cccc4[nH]cc(c34)C[C@H]21 please.
0

Tell me the assay call for CC(=O)c1ccc([N+](=O)[O-])cc1 please.
1

Tell me the assay call for O=[N+]([O-])c1ccc(O/N=C/c2cc(Br)c(O)c(Br)c2)c([N+](=O)[O-])c1 please.
0

* * *

biological target: Voltage-gated inwardly rectifying potassium channel KCNH2 (Homo sapiens); assay: Human Ether-a-go-go-Related Gene (hERG) channel small molecule antagonists: fluorescence cell-based qHTS assay (AID 1671200); conditions: hERG-U2OS cells, FluxOR thallium flux fluorescence; series mostly up to 76.8 µM;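 further: hERG-expressing U2OS cells given a thallium stimulus after FluxOR II dye loading; nearly all actives have a fitted effect of over 50% in size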
Inconclusive results are not listed. Calls of active or inactive are those of the source. The call rests on the fitted dose curve; in most records, active means well fitted inhibition curve with a large enough effect in the repeat runs; inconclusive means weak or mixed curves; inactive means flat fitted curve, though single readings scatter.
measurementLabel: Potency

See these solved cases before continuing.
> print(dat)
                                   compound  measurementlabel  reportedresult
1  O=[N+]([O-])c1ccc(O/N=C/c2cc(Br)c(O)c(Br)c2)c([N+](=O)[O-])c1           Potency        inactive
2                            N#CCCN(CCO)CCO           Potency        inactive
3  CC1CC(OC(=O)C(O)c2ccccc2)CC(C)(C)N1C (centres undefined)           Potency        inactive
4                       CC(C)=CC(=O)C=C(C)C           Potency        inactive

Voltage-gated inwardly rectifying potassium channel KCNH2 (Homo sapiens) / Potency / C=C1c2cccc(O)c2C(O)=C2C(=O)[C@]3(O)C(O)=C(C(N)=O)C(=O)[C@@H](N(C)C)[C@@H]3[C@@H](O)[C@H]12 : value?
inactive

Voltage-gated inwardly rectifying potassium channel KCNH2 (Homo sapiens) / Potency / CC1(C)O[C@@H]2C[C@H]3[C@@H]4C[C@H](F)C5=CC(=O)C=C[C@]5(C)[C@H]4[C@@H](O)C[C@]3(C)[C@]2(C(=O)CO)O1 : value?
inactive

Voltage-gated inwardly rectifying potassium channel KCNH2 (Homo sapiens) / Potency / O=C(O)CCc1nc(-c2ccccc2)c(-c2ccccc2)o1 : value?
inactive

* * *

assay: qHTS assay to identify small molecule agonists of the progesterone receptor (PR) signaling pathway - cell viability counter screen (AID 1346799); conditions: PR-UAS-bla HEK293T viability, CellTiter-Glo luminescence, 16 h; series mostly up to 92.4 µM; further: nearly all actives have a fitted effect of over 45% in size
Results filed as inconclusive are left out. Calls of active or inactive are those of the source. Calls follow the shape of the full dose curve.
measurementLabel: outcome

> print(dat)
                               smilesrecord  reportedresult
1       COc1cc(C(=O)NCCCCCC(=O)O)cc(OC)c1OC        inactive
2               O=C(OC(=O)c1ccccc1)c1ccccc1        inactive
3  CC1(C)[C@H](C(=O)O)N2C(=O)C[C@H]2S1(=O)=O        inactive

* * *

experiment: qHTS assay to identify small molecule antagonists of the retinoic acid receptor (RAR) signaling pathway (AID 1159552; further: nearly all actives have a fitted effect of over 50% in size); conditions: C3RL4 RARE luciferase reporter, retinol-stimulated, 6 h; series mostly up to 92.4 µM
Results filed as inconclusive are left out. Calls of active or inactive are those of the source. Calls follow the shape of the dose curve; as a rule, active = well fitted inhibition curve with a large enough effect in the repeat runs; inconclusive = weak or mixed curves, or effect the other way; inactive = no such curve, though single readings can be large or run the other way.
Classes to choose from: active, inactive

Worked set:
> print(dat)
                                   compound  answerlabel
1              c1ccc(C[n+]2cccc3ccccc32)cc1     inactive
2  O=C(Nc1cccc2c(=O)cc(-c3nn[nH]n3)oc12)c1ccc(OCCCCc2ccccc2)cc1     inactive
3              CC(=O)c1ccc([N+](=O)[O-])cc1     inactive

Tell me the assay call for CC(C)(C)CC(=O)OCC(=O)[C@@]1(O)CC[C@H]2[C@@H]3CCC4=CC(=O)C=C[C@]4(C)[C@H]3[C@@H](O)C[C@@]21C please.
active

Tell me the assay call for CN1CCCN=C1COC(=O)C(O)(c1ccccc1)C1CCCCC1 (stereo unspecified) please.
inactive

* * *

Test: qHTS assay to identify small molecule antagonists of the constitutive androstane receptor (CAR) signaling pathway - cell viability counter screen (AID 1224837); further: nearly all actives have a fitted effect of over 45% in size
Details: HepG2-CYP2B6-hCAR viability, CellTiter-Fluor, 23 h, co-treated with 50 nM CITCO; series mostly up to 92.4 µM
Procedure: National Center for Advancing Translational Sciences [NCATS] NIH Chemical Genomics Center [NCGC] U.S. Environmental Protection Agency [EPA] National Institutes of Environmental Health Sciences [NIEHS] National Toxicology Program [NTP] […] A double-stable (hCAR and CYP2B6-2.2kb) transfected cell line, derived from human hepatoma (HepG2) cells, was utilized for the duration of the quantitative high-throughput screens. […] The fluorescence intensity in the plates was then measured using a ViewLux plate reader.
Results filed as inconclusive are left out. Active and inactive are the calls of the source. The call rests on the fitted dose curve; in most records, active means well fitted cell-killing curve with a large enough effect in the repeat runs; inconclusive means weak or mixed curves, or effect the other way; inactive means flat fitted curve, though single readings scatter.
Classes to choose from: yes (1) for active, no (0) for inactive

> print(dat)
                               smilesrecord  answerlabel
1  CC(=O)NC1(c2cccc(F)c2)CCN(CC[C@@]2(c3ccc(Cl)c(Cl)c3)CN(c3ccccc3)C(=O)CO2)CC1      yes (1)
2             O=C1Cc2ccccc2N1c1c(Cl)cccc1Cl       no (0)
3  CC(C)=CCC/C(C)=C/CC/C(C)=C/C(=O)OCC(=O)[C@@]1(O)CC[C@H]2[C@@H]3CCC4=CC(=O)C=C[C@]4(C)[C@H]3[C@@H](O)C[C@@]21C       no (0)

Tell me the assay call for O=C(O)CCC(=O)C(=O)O please.
no (0)

Tell me the assay call for CCCC(=O)C(=O)O please.
no (0)

Tell me the assay call for Clc1cc(Cl)nc(Cl)n1 please.
no (0)

Tell me the assay call for c1ccc2c(c1)CCc1ccccc1N2 please.
no (0)

Tell me the assay call for CC(C)(c1ccccc1)c1ccccc1 please.
no (0)

Tell me the assay call for Nc1ncnc2c1ncn2[C@H]1CC[C@@H](CO)O1 please.
no (0)

Tell me the assay call for C1C[C@@H]2[C@H]3CC[C@H](C3)[C@@H]2C1 please.
no (0)

Tell me the assay call for CCOC(=O)c1ccccc1C(=C1C=C(Br)C(=O)C(Br)=C1)c1cc(Br)c(O)c(Br)c1 please.
no (0)

Tell me the assay call for O=C1CCCCCCCCCCOCCCCO1 please.
no (0)

* * *

test: Human pregnane X receptor (PXR) small molecule agonists, qHTS cell viability counter screen (AID 1346977); details: PXR-Luc HepG2 viability, CellTiter-Fluor, 24 h; series mostly up to 92.4 µM; further: nearly all actives have a fitted effect of over 50% in size
Results filed as inconclusive are left out. Activity calls are given as the source filed them. The call rests on the fitted dose curve; in most records, active means well fitted cell-killing curve with a large enough effect in the repeat runs; inconclusive means weak or mixed curves, or effect the other way; inactive means flat fitted curve, though single readings scatter.
Classes to choose from: active, inactive

Worked set:
> print(dat)
                 compound  answerlabel
1          N#CCCN(CCO)CCO     inactive
2  CCOC(=O)c1ccc(O)c(O)c1     inactive
3  CCCCCCCC/C=C\CCCCCCCCO     inactive

Tell me the assay call for CCOC(=O)/C=C/C(=O)OCC please.
inactive

* * *

Test: qHTS assay to identify small molecule antagonists of the retinoid-related orphan receptor gamma (ROR-gamma) signaling pathway - cell viability counter screen (AID 1159520); further: nearly all actives have a fitted effect of over 50% in size
Conditions: Tet-on RORgamma CHO cells viability, ATP luminescence, 16 h; series mostly up to 92.4 µM
Protocol: U.S. Tox21 Program National Center for Advancing Translational Sciences [NCATS] NIH Chemical Genomics Center [NCGC] U.S. Environmental Protection Agency [EPA] National Institutes of Environmental Health Sciences [NIEHS] National Toxicology Program [NTP] U.S. Food and Drug Administration [FDA] […] Reporter gene activity was induced using Doxycycline Hyclate and measured after 16 hr incubation. […]
Records with an inconclusive call do not appear. Calls of active or inactive are those of the source. Calls follow the shape of the dose curve; as a rule, active = well fitted cell-killing curve with a large enough effect in the repeat runs; inconclusive = weak or mixed curves, or effect the other way; inactive = no such curve, though single readings can be large or run the other way.
measurementLabel: Potency

See these solved cases before continuing.
> print(dat)
                                   compound  measurementlabel  reportedresult
1  Nc1cccc2c1CN(C1CCC(=O)NC1=O)C2=O (stereo not drawn)           Potency        inactive
2  CCC1NC(=O)c2cc(S(N)(=O)=O)c(Cl)cc2N1 (stereo not drawn)           Potency        inactive
3                            N#CCCN(CCO)CCO           Potency        inactive
4         O=C(CCc1ccc(O)cc1)c1c(O)cc(O)cc1O           Potency        inactive
5  Cc1c(C)c2c(c(C)c1OC(=O)CCC(=O)OCCO)CC[C@@](C)(CCC[C@H](C)CCC[C@H](C)CCCC(C)C)O2           Potency        inactive

Item CC(C)=CC(=O)C=C(C)C has what recorded Potency?
inactive

Item COc1cc(C(=O)NCCCCCC(=O)O)cc(OC)c1OC has what recorded Potency?
inactive
